- Read-out: Tumor necrosis factor receptor 1 (TNFRSF1A), TNFRSF1A (gene 7132)
- test.name: LTEA_HepaRG_TNFRSF1A: Life Technologies and Expression Analysis (LTEA) Assay for Tumor necrosis factor receptor 1 (TNFRSF1A) using HepaRG (AID 2283535)
- condition.description: mRNA level, 48 h; actives raise or lower the signal
The source made the active and inactive calls. How the source made its calls: active means hit-call score of the fitted dose curve at least 0.9, where 1 is the maximum; inactive means score below 0.9.
Hi there, use one of these labels in your reply, thanks! active, inactive

Example entries and their recorded answers appear below.
In [3]: df
Out[3]:
                                   compound  class_name
0             ClC1=C(Cl)C(Cl)(Cl)C(Cl)=C1Cl    inactive
1             COCC(C)O (stereo unspecified)    inactive
2                                  CCCCOCCO    inactive
3  CCCOc1sc(C(=O)N2CCC(c3cc(CN)ccc3F)CC2)c(C)c1Br    inactive
4  OC1CCC(C2CCCCC2)CC1 (stereo unspecified)    inactive
5  CCN(CC)CCNc1ccc(CNC=O)c2sc3ccc(OC)cc3c(=O)c12      active

**Q:** For this compound, state the assay outcome: CC(C)(C)c1cccc(C(C)(C)C)c1O
**A:** inactive

**Q:** What outcome does the record of this test show for O=[N+]([O-])c1ccc(O)cc1 ?
**A:** inactive

**Q:** Record lookup: outcome of this test for CCC(C)(C)C1CCC(O)CC1 (stereo unspecified) ?
**A:** inactive
